target: human NPY Y5 receptor (Homo sapiens (Human), UniProt Q15761); test: Inhibitory effect on cAMP production in CHO cells; assay type: cell-based; conditions: CHO cells expressing human NPY Y5 receptor, 50 nM NPY, 10 μM forskolin; read-out: 50% inhibitory concentration (IC50 value) against the NPY activity on forskolin stimulated cAMP production
Sequence (Q15761 whole entry): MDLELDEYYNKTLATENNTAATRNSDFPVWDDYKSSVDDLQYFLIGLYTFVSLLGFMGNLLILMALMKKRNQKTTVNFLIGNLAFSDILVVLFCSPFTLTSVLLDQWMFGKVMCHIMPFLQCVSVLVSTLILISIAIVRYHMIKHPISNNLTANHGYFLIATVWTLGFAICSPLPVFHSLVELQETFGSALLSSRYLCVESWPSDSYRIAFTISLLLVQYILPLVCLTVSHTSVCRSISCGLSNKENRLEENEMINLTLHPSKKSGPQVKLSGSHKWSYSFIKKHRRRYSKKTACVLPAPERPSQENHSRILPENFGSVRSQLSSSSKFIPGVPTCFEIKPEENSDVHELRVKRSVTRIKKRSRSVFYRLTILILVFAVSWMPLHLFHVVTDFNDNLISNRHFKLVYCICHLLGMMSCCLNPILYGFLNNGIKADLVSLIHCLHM
Assay metric: IC50 (nM)

>>> test_result("CCS(=O)(=O)NC[C@H]1CC[C@H](Nc2nc(-c3ccc(F)c(F)c3)no2)CC1 [Compound I-029]")
1.3

P: CC(C)S(=O)(=O)NC[C@H]1CC[C@H](Nc2nc(-c3cccc(F)c3)no2)CC1 [Compound I-018]
Q: CCS(=O)(=O)NC[C@H]1CC[C@H](Nc2nc(-c3cccc(F)c3)no2)CC1 [Compound I-017]
Would you let me know which has the greater IC50 value, P or Q ? # answer = label of selected item
Q
(Q: 3.3 nM, P: 2.1 nM)

====

target: human NPY Y5 receptor (Homo sapiens (Human)); test: Affinity for human NPY Y5 receptor ([125I] peptide YY binding, CHO cell membranes); conditions: membranes from CHO cells expressing human NPY Y5 receptor, [125I] peptide YY 60 pM, 25° C., 2 hours; read-out: 50% inhibitory concentration against the specific peptide YY binding (IC50 value)
Assay metric: IC50 (nM)

>>> test_result("CCS(=O)(=O)NC[C@H]1CC[C@H](Nc2nc(-c3cccc(F)c3)no2)CC1 [Compound I-017]")
0.81
>>> test_result("CCS(=O)(=O)NC[C@H]1CC[C@H](Nc2nc(-c3ccc(F)c(F)c3)no2)CC1 [Compound I-029]")
0.86

====

biological target: mouse NPY Y5 receptor (Mus musculus (Mouse), UniProt O70342)
Sequence (O70342 whole entry): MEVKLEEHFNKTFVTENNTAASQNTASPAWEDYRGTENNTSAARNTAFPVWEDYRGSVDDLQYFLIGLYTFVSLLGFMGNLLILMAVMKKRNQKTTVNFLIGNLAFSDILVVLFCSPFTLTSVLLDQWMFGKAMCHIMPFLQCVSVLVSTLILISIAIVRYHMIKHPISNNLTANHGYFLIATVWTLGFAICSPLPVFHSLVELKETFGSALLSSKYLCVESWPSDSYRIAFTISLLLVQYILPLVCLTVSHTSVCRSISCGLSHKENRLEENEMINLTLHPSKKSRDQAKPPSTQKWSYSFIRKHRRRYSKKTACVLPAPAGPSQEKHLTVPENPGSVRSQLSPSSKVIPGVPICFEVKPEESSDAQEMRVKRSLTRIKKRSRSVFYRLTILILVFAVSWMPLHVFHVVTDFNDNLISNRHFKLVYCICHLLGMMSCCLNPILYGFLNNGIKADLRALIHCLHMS
Assay metric: IC50 (nM)

>>> test_result("CC(C)S(=O)(=O)NC[C@H]1CC[C@H](Nc2nc(-c3ccc(F)cn3)no2)CC1")
0.8

P: CC(C)S(=O)(=O)NC[C@H]1CC[C@H](Nc2nc(-c3cccc(F)c3)no2)CC1
Q: CC(C)(C)S(=O)(=O)NC[C@H]1CC[C@H](Nc2nc(C(F)(F)F)co2)CC1
R: CC(C)S(=O)(=O)NC[C@H]1CC[C@H](Nc2nc(-c3ccccc3)no2)CC1
Arrange items by their IC50 values in increasing order. I'd appreciate it if you listed the labels in the requested order.
R, P, Q

====

// endpoint IC50 / system mouse NPY Y5 receptor (Mus musculus (Mouse))
Assay metric: IC50 (nM)

Worked cases, answers included:
>>> test_result("CC(C)(C)S(=O)(=O)NC[C@H]1CC[C@H](Nc2nc(C(F)(F)F)no2)CC1 [Compound I-136]")
1.5
>>> test_result("CS(=O)(=O)NC[C@H]1CC[C@H](Nc2nc(-c3cccc(F)c3)no2)CC1 [Compound I-027]")
0.86

A: CC(C)(C)S(=O)(=O)NC[C@H]1CC[C@H](Nc2nc(C(F)(F)C(F)(F)F)no2)CC1 [Compound I-149]
B: CCS(=O)(=O)NC[C@H]1CC[C@H](Nc2nc(C(F)(F)C(F)(F)F)no2)CC1 [Compound I-153]
C: CCS(=O)(=O)NC[C@H]1CC[C@H](Nc2nc(-c3cccc(F)c3)no2)CC1 [Compound I-017]
D: CC(C)S(=O)(=O)NC[C@H]1CC[C@H](Nc2nc(C(F)(F)F)no2)CC1 [Compound I-145]
Put the compounds in ascending order of IC50. Use the labels to give the ranking in the order requested.
C, A, B, D
(C: 0.22 nM, A: 1.04 nM, B: 1.67 nM, D: 3.1 nM)

Cited source: patent US8916594B2
